Origin of values: patent US7064120B2

TARGET_UNDER_TEST: human oxytocin receptor (Homo sapiens, UniProt P30559)
Construct: host or cells: CHO cells, stably transfected (pcDNA3.1 vector)
Sequence (P30559 whole entry): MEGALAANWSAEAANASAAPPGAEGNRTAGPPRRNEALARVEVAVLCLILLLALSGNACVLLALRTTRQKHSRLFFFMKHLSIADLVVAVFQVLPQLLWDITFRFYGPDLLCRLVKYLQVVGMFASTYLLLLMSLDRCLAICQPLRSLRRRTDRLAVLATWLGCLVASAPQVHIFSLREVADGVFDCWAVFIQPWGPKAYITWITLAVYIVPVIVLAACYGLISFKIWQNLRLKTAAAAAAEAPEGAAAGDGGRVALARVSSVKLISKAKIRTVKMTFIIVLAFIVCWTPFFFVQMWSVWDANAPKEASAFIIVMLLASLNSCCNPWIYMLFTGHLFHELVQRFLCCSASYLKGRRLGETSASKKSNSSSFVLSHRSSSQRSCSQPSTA
EXPERIMENT_DESCRIPTION: Oxytocin binding in CHO cell membranes expressing human oxytocin receptors ([3H]oxytocin radioligand binding)
SETTINGS: 100 nM, read-out: OT % inhibition @ 100 nM
Task for the reader: assign each of the following compounds its reported inhibition at 0.1 µM.
Number only, in %; omit the unit.

Q. Give the measured inhibition at 0.1 µM of COc1cccc(-c2cc(OC)c(C(=O)N3Cc4ccc(C(=O)NCCc5ccccn5)n4Cc4ccccc43)cc2Cl)c1 .
A. 31

Q. Cc1ccccc1-c1ccc(C(=O)N2Cc3ccc(C(=O)N4CCN(c5ccncc5)CC4)n3Cc3ccccc32)cc1 , same question.
A. 13

Q. Repeat with COc1cccc(-c2ccc(C(=O)N3Cc4ccc(C(=O)N5CCN(c6ccccn6)CC5)n4Cc4ccccc43)cc2OC)c1
A. 32

Q. Can you check COc1cccc(-c2cc(OC)c(C(=O)N3Cc4ccc(C(=O)N5CCN(c6ccccn6)CC5)n4Cc4ccccc43)cc2Cl)c1 next?
A. 27

Q. Would you kindly repeat that for COc1ccccc1-c1ccc(C(=O)N2Cc3ccc(C(=O)N(C)CCc4ccncc4)n3Cc3ccccc32)cc1 ?
A. 98

Q. What would you report for COc1cccc(-c2ccc(C(=O)N3Cc4ccc(C(=O)NCc5ccccn5)n4Cc4ccccc43)cc2C)c1 ?
A. 50

* * *

TARGET_UNDER_TEST: human oxytocin receptor (Homo sapiens)
Construct: host or cells: CHO cells, stably transfected (pcDNA3.1 vector)
EXPERIMENT_DESCRIPTION: Oxytocin binding in CHO cell membranes expressing human oxytocin receptors ([3H]oxytocin radioligand binding)
SETTINGS: 100 nM, read-out: OT % inhibition @ 100 nM
QUANTITY: inhibition at 0.1 µM (%)
Number only, in %; omit the unit.

Q. Form field: inhibition at 0.1 µM recorded for COc1cccc(-c2ccc(C(=O)N3Cc4ccc(C(=O)N(C)CCc5ccncc5)n4Cc4ccccc43)cc2C)c1 with human oxytocin receptor (Homo sapiens) (enter value)
A. 88

Q. Also check Cc1cc(C(=O)N2Cc3ccc(C(=O)N4CCCCC4c4cccnc4)n3Cc3ccccc32)ccc1-c1ccccc1C(F)(F)F (stereo not shown)
A. 93

Q. Would you kindly repeat that for Cc1ccccc1-c1ccc(C(=O)N2Cc3ccc(C(=O)N(C)Cc4cccnc4)n3Cc3ccccc32)cc1 ?
A. -9

Q. Now this one: COc1cccc(-c2ccc(C(=O)N3Cc4ccc(C(=O)NCc5ccncc5)n4Cc4ccccc43)cc2C)c1
A. 44

Q. Same lookup for COc1ccccc1-c1ccc(C(=O)N2Cc3ccc(C(=O)NCCc4ccccn4)n3Cc3ccccc32)cc1C , please.
A. 58

Q. Let us now turn to COc1cc(C(=O)N2Cc3ccc(C(=O)NCCc4ccccn4)n3Cc3ccccc32)ccc1-c1ccccc1C
A. 55

Q. Try the compound COc1cc(C(=O)N2Cc3ccc(C(=O)N(C)CCc4ccncc4)n3Cc3ccccc32)ccc1-c1cccc2ccccc12
A. 88

* * *

TARGET_UNDER_TEST: human oxytocin receptor (Homo sapiens, UniProt P30559)
Construct: host or cells: CHO cells, stably transfected (pcDNA3.1 vector)
EXPERIMENT_DESCRIPTION: Oxytocin binding in CHO cell membranes expressing human oxytocin receptors ([3H]oxytocin radioligand binding)
SETTINGS: 100 nM, read-out: OT % inhibition @ 100 nM
What inhibition at 0.1 µM was measured for each of the following?
Please answer in the form of a number followed by its unit of measurement.

Q. Reported inhibition at 0.1 µM, compound COc1cc(C(=O)N2Cc3ccc(C(=O)NCc4ccncc4)n3Cc3ccccc32)ccc1-c1ccccc1C [Example 93] : ____
A. 69%

Q. Same again, this time with COc1cc(C(=O)N2Cc3ccc(C(=O)N(C)CCc4ccccn4)n3Cc3ccccc32)ccc1-c1ccccc1C [Example 69]
A. 94%

Q. // same read-out, input: COc1cc(C(=O)N2Cc3ccc(C(=O)NCc4ccncc4)n3Cc3ccccc32)ccc1-c1cccc2ccccc12 [Example 96]
A. 28%

Q. Also check COc1cc(C(=O)N2Cc3ccc(C(=O)N(C)CCc4ccccn4)n3Cc3ccccc32)ccc1-c1cccc2ccccc12 [Example 71]
A. 81%

Q. Then this compound: COc1cc(C(=O)N2Cc3ccc(C(=O)N4CCN(c5ccccn5)CC4)n3Cc3ccccc32)ccc1-c1ccccc1C [Example 80]
A. 50%

Q. Can you handle COc1ccccc1-c1ccc(C(=O)N2Cc3ccc(C(=O)N4CCCCC4c4cccnc4)n3Cc3ccccc32)cc1OC (stereo not shown) [Example 141] next?
A. 96%

Q. What do you have for COc1cc(-c2ccccc2C)c(Cl)cc1C(=O)N1Cc2ccc(C(=O)N3CCN(c4ccccn4)CC3)n2Cc2ccccc21 [Example 81] ?
A. 50%
